Attribution: PubChem BioAssay (NCI)

Tested on: HT29 colon
measurement.notes: NCI-60 one-dose screen, 48 h (100 = growth as untreated, 0 = no growth, -100 = all killed)
condition.summary: 10 µM unless noted
The panel holds about 83,000 compounds, 20% with a hit somewhere; the sample as a whole holds those more often. Active and inactive are the calls of the source. How the source made its calls: active means growth percent below 10; inactive means the rest.
readout.label: growth

- COC(=O)c1nc(-c2ccccc2)oc1S(=O)(=O)Cc1ccccc1: 49.4% (inactive)
- COc1ccc(/C=C/C(=O)c2cccc(OCCCCOc3cccc(C(=O)/C=C/c4ccc(OC)c(OC)c4)c3)c2)cc1OC: 92% (inactive)
- CCOC(=O)c1c(C(=O)c2cn(C)c3ccc(Br)cc23)c(-c2cn(C)c3ccc(Br)cc23)n(NC(=O)OC(C)(C)C)c1C: 90.5% [100 µM] (inactive)
- Cc1nc2sc(C(=O)Nc3ccc(Br)cc3)c(N)c2cc1C(O)c1ccccc1 (stereo not drawn): 36.7% (inactive)
- COC(=O)/C=C1/SC(=Nc2cccc(OC)c2)N(CCc2c[nH]c3ccc(O)cc23)C1=O: 92% (inactive)
- COC(=O)c1c(C)c2n(c1C)C(=O)C(c1ccccc1)=C2: 87.1% (inactive)
- COc1cc(-c2csc(NC(=O)c3ccc(N4CCOCC4)c(C(F)(F)F)c3)n2)cc(OC)c1OC: 43.2% (inactive)
- CCCc1c(OC(=O)c2ccccc2)nc2[nH]c(=O)sc2c1C: 104% (inactive)

====

System: SF-295 CNS
measurement.notes: NCI-60 one-dose screen, 48 h
condition.summary: 10 µM unless noted
The panel holds about 83,000 compounds, 20% with a hit somewhere; the sample as a whole holds those more often. Activity calls are given as the source filed them. Rule for the calls: active = growth percent below 10; inactive = the rest.
Outcome codes: yes (active), no (inactive)

• COc1cc(-c2nccc3[nH]c(-c4ccc5cc[nH]c5c4)nc23)cc(OC)c1OC = yes
• COc1ccc(C(=O)N2c3ccccc3Sc3ccccc32)c(OC)c1 = no
• O=S(=O)(NCCNc1nccc(-c2c(-c3ccc(F)c(O)c3)nc3sccn23)n1)c1ccc(O)cc1 = no
• CC(C)(C)[Si](C)(C)OC1[C@@H](CNC(=O)NC(=O)NC(N)=O)O[C@@H](n2cnc3c(NC(=O)Nc4ccccc4)ncnc32)[C@H]1O[Si](C)(C)C(C)(C)C (stereo not given in full) = no
• COc1ccc(C2CC(c3ccc(Nc4nc(Nc5ccccc5)nc(Nc5ccccc5)n4)cc3)=NN2C(C)=O)cc1 (stereo not given) = no

====

System: DU-145 prostate
measurement.notes: NCI-60 one-dose screen, 48 h (100 = growth as untreated, 0 = no growth, -100 = all killed)
condition.summary: 10 µM unless noted
The panel holds about 83,000 compounds, 20% with a hit somewhere; the sample as a whole holds those more often. Calls of active or inactive are those of the source. The calls were made as follows: active = growth percent below 10; inactive = the rest.
Recorded measurements of growth, one per entry
readout.label: growth

* O=CN1N=C(c2cccc(Nc3ccnc4cc(Cl)ccc34)c2)CC1c1ccccc1 (configuration not stated) | 6.74% (active)
* Cc1cn(-c2cc(NC(=O)c3cncc(C#Cc4cnc(N)c5ncccc45)c3)cc(C(F)(F)F)c2)cn1 | 93.7% (inactive)
* O=C(Nc1ccc(Oc2cccc(Cl)c2)c(Cl)c1)c1cnccn1 | 22.7% (inactive)
* C=C(C)[C@@H]1CCC[C@]2(COS(=O)(=O)c3ccc(C)cc3)CC[C@]3(C)[C@@H](CC[C@@H]4[C@@]5(C)CCCNC(C)(C)[C@@H]5CC[C@]43C)[C@@H]12 | 0.903% (active)
* CCn1cc(C(=O)NNC(=S)Nc2ccc(C)cc2)c(=O)c2ccc(C)nc21 | 108% (inactive)
* COc1cc(/C=C/C(=O)c2ccc(F)cc2)ccc1OCCCCOc1ccc(/C=C/C(=O)c2c(C)nc3ccccc3c2C)cc1OC | 157% (inactive)
* CC(C)Cn1cnc2c(=O)[nH]c(N)nc21 | 109% (inactive)
